MEASUREMENT_TARGET: Protein farnesyltransferase (Rattus norvegicus, UniProt Q02293+Q04631)
ASSAY_TEXT: Inhibitory concentration against rat brain farnesyltransferase
Kindly state IC50 for each of the entries shown.
Hi! Could you send only the number? It should be in nM, unit omitted.

response.value for CC(NC(=O)[C@@H](Cc1c[nH]c2ccccc12)NC(=O)[C@@H](COCc1ccccc1)NC(=O)[C@@H](Cc1ccc(OCc2ccccc2)cc1)NC(=O)[C@@H](Cc1c[nH]cn1)NC(=O)OCc1ccccc1)C(N)=O (stereo not given in full) (field: IC50) = 8.5

Data point: "C[C@H](NC(=O)[C@@H](Cc1c[nH]c2ccccc12)NC(=O)[C@@H](COCc1ccccc1)NC(=O)[C@@H](Cc1ccc(OCc2ccccc2)cc1)NC(=O)[C@@H](Cc1cnc[nH]1)NC(=O)OCC1c2ccccc2-c2ccccc21)C(N)=O" ; IC50 = 1600

# IC50 of "C[C@H](NC(=O)[C@@H](Cc1c[nH]c2ccccc12)NC(=O)[C@@H](COCc1ccccc1)NC(=O)[C@@H](CCc1ccccc1)NC(=O)[C@@H](Cc1c[nH]cn1)NC(=O)OCc1ccccc1)C(N)=O" = 18

---

MEASUREMENT_TARGET: Protein farnesyltransferase (Rattus norvegicus, UniProt Q02293+Q04631)
ASSAY_TEXT: Inhibition of rat brain farnesyltransferase in 5 mM potassium phosphate and 50 mM HEPES buffer
TEST_READOUT: IC50 (nM)
// units = nM; emit number, no label

Consider C[C@@H](NC(=O)[C@H](Cc1c[nH]c2ccccc12)NC(=O)[C@H](COCc1ccccc1)NC(=O)[C@H](Cc1ccc(OCc2ccccc2)cc1)NC(=O)[C@H](Cc1c[nH]cn1)NC(=O)OCc1ccccc1)C(N)=O (single isomer, unassigned) . Its measured IC50 is 76

Lab note: measured IC50 of C[C@H](NC(=O)[C@@H](Cc1c[nH]c2ccccc12)NC(=O)[C@@H](COCc1ccccc1)NC(=O)C(Cc1ccc(CP(=O)(O)O)cc1)NC(=O)[C@@H](Cc1cnc[nH]1)NC(=O)OCc1ccccc1)C(N)=O (some centres not stated) was 280

---

MEASUREMENT_TARGET: Protein farnesyltransferase (Rattus norvegicus, UniProt Q02293+Q04631)
ASSAY_TEXT: Inhibition of rat brain farnesyltransferase in 30 mM potassium phosphate buffer
TEST_READOUT: pIC50
Scale for pIC50: -log10 of concentration given in mol/L; no unit attached.

Entry "C[C@H](NC(=O)[C@@H](Cc1c[nH]c2ccccc12)NC(=O)[C@@H](COCc1ccccc1)NC(=O)[C@@H](Cc1ccc(OP(=O)(O)O)cc1)NC(=O)[C@@H](Cc1c[nH]cn1)NC(=O)OCc1ccccc1)C(N)=O" , tested on Protein farnesyltransferase (Rattus norvegicus, UniProt Q02293+Q04631), has a reported pIC50 of 7.89

The reported Protein farnesyltransferase (Rattus norvegicus, UniProt Q02293+Q04631) pIC50 of "C[C@H](NC(=O)[C@@H](Cc1c[nH]c2ccccc12)NC(=O)[C@@H](COP(=O)(O)O)NC(=O)[C@@H](Cc1ccc(OCc2ccccc2)cc1)NC(=O)[C@@H](Cc1cnc[nH]1)NC(=O)OCc1ccccc1)C(N)=O" is 6.62

So the reported pIC50 for C[C@@H](NC(=O)[C@H](Cc1c[nH]c2ccccc12)NC(=O)[C@H](COCc1ccccc1)NC(=O)[C@H](Cc1ccc(O)cc1)NC(=O)[C@H](Cc1c[nH]cn1)NC(=O)OCc1ccccc1)C(N)=O (single isomer, unassigned) , on Protein farnesyltransferase (Rattus norvegicus, UniProt Q02293+Q04631), turned out to be 7.46

// assay Protein farnesyltransferase (Rattus norvegicus, UniProt Q02293+Q04631), entry C[C@H](NC(=O)[C@@H](Cc1c[nH]c2ccccc12)NC(=O)[C@@H](COCc1ccccc1)NC(=O)C(Cc1ccc(CP(=O)(O)O)cc1)NC(=O)[C@@H](Cc1cnc[nH]1)NC(=O)OCc1ccccc1)C(N)=O (some centres undefined) , pIC50 value = 6.70
